test: The inhibitory activity of compound against MraY or MurG at 25 ug/mL; No Inhibition
Calls of active or inactive are those of the source. The calls are words filed in the database; no cut-off is given here.
readout.kind: Inhibitory activity

Examples with their reported Inhibitory activity follow.
COc1ccc(Cn2c(=O)ccn([C@@H]3OC([C@H](O)[C@H](NCCCNC(=O)[C@@H](CC(C)C)NC(=O)[C@H](CCCN=C(N)N)NC(=O)N[C@H](C(=O)O)C(C)C)C(=O)O)[C@@H](O)[C@H]3O)c2=O)cc1 (stereo partly drawn) : inactive
COc1ccc(Cn2c(=O)ccn([C@@H]3OC([C@H](O)[C@H](NCCCNC(=O)[C@H](N)CC(=O)OCc4ccccc4)C(=O)OC(C)(C)C)[C@@H](O[Si](C)(C)C(C)(C)C)[C@H]3O[Si](C)(C)C(C)(C)C)c2=O)cc1 (stereo partly drawn) : inactive
COc1ccc(Cn2c(=O)ccn([C@@H]3OC([C@H](O)[C@H](NCCCNC(=O)[C@H](N)CCc4ccccc4)C(=O)OC(C)(C)C)[C@@H](O[Si](C)(C)C(C)(C)C)[C@H]3O[Si](C)(C)C(C)(C)C)c2=O)cc1 (stereo partly drawn) : inactive
COc1ccc(Cn2c(=O)ccn([C@@H]3OC([C@@H](O)[C@H](NCCCNC(=O)[C@H](N)C(O)C(C)C)C(=O)OC(C)(C)C)[C@@H](O[Si](C)(C)C(C)(C)C)[C@H]3O[Si](C)(C)C(C)(C)C)c2=O)cc1 (stereo partly drawn) : inactive
COc1ccc(Cn2c(=O)ccn([C@@H]3OC([C@H](O)[C@H](NCCCNC(=O)[C@H](N)C(O)C(C)C)C(=O)OC(C)(C)C)[C@@H](O[Si](C)(C)C(C)(C)C)[C@H]3O[Si](C)(C)C(C)(C)C)c2=O)cc1 (stereo partly drawn) : inactive

Check the records and state Inhibitory activity for COc1ccc(Cn2c(=O)ccn([C@@H]3OC([C@H](O)[C@H](NCCCNC(=O)[C@@H](C)N)C(=O)OC(C)(C)C)[C@@H](O[Si](C)(C)C(C)(C)C)[C@H]3O[Si](C)(C)C(C)(C)C)c2=O)cc1 (stereo partly drawn)
inactive

Report measured Inhibitory activity; entry is COc1ccc(Cn2c(=O)ccn([C@@H]3OC([C@H](O)[C@H](NCCCNC(=O)[C@H](N)CCCCNC(=O)OCc4ccccc4)C(=O)OC(C)(C)C)[C@@H](O[Si](C)(C)C(C)(C)C)[C@H]3O[Si](C)(C)C(C)(C)C)c2=O)cc1 (stereo partly drawn)
inactive

Quick one: give measured Inhibitory activity for COc1ccc(Cn2c(=O)ccn([C@@H]3OC([C@H](O)[C@H](NCCCNC(=O)[C@H](N)CCC(=O)OC(C)(C)C)C(=O)OC(C)(C)C)[C@@H](O[Si](C)(C)C(C)(C)C)[C@H]3O[Si](C)(C)C(C)(C)C)c2=O)cc1 (stereo partly drawn)
inactive
